Hello, the source for this data is PubChem BioAssay AID1902, in case you need it.

measurement target: S. pyogenes SKKanGAS, kanamycin survival, BacTiterGlo, 6 h
assay remarks: S. pyogenes SKKanGAS kanamycin growth inhibitors – SKKanGAS strain, luminescence, dose confirmation, streptokinase promoter inhibitor project, dose response (AID 1902);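 also: lower survival reflects blocked streptokinase promoter driving kanamycin resistance gene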
Activity calls are given as the source filed them.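 The calls were made as follows: active = EC50 no more than a set limit of log units above the highest dose; inactive = the rest.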
readout name: EC50

[[record]]
molecule = "Cc1ccc(S(=O)(=O)Nc2cccc3cccnc23)c([N+](=O)[O-])c1"
endpoint_result = "0.632 µM"

[[record]]
molecule = "O=C(COC(=O)Cc1cn2ccsc2n1)Nc1nc2ccccc2s1"
endpoint_result = "2.51 µM"

[[record]]
molecule = "O=C(CN1C(=O)S/C(=C\\C=C\\c2ccccc2)C1=O)Nc1ccccc1C(=O)O"
endpoint_result = "5.62 µM"

[[record]]
molecule = "C/C(=N\\NC(=O)c1nnn(-c2nonc2N)c1CN(C)c1ccccc1)c1ccccc1O"
endpoint_result = "2.75 µM"

[[record]]
molecule = "CC(=O)Nc1nnc(S(=O)(=O)N2CCN(c3ccc(Cl)cc3[N+](=O)[O-])CC2)s1"
endpoint_result = "> 15 µM (inactive)"

[[record]]
molecule = "CC(C)N1CCc2c(sc(NC(=O)c3ccc(S(=O)(=O)N(C)CC4CCCO4)cc3)c2C(N)=O)C1 (stereo not given)"
endpoint_result = "> 15 µM (inactive)"

[[record]]
molecule = "O=C(NC(=S)N1CCN(c2c(Cl)cccc2[N+](=O)[O-])CC1)c1cccs1"
endpoint_result = "5.15 µM"

[[record]]
molecule = "O=C(COc1ccc(F)cc1)Nc1nc(-c2ccccn2)cs1"
endpoint_result = "5.55 µM"

[[record]]
molecule = "Cc1ccc2nc(/N=C(\\N)NC(=O)NC3CCCCC3)nc(C)c2c1"
endpoint_result = "1.15 µM"

[[record]]
molecule = "Cc1cc(SCC(=O)N/N=C/c2ccc(O)c(O)c2O)c(C)cc1Br"
endpoint_result = "3.11 µM"


====

measurement target: S. pyogenes SKKanGAS, kanamycin survival, BacTiterGlo, 6 h
assay remarks: S. pyogenes SKKanGAS kanamycin growth inhibitors – SKKanGAS strain, luminescence, dose confirmation, streptokinase promoter inhibitor project, dose response (AID 1902)
Active and inactive are the calls of the source.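 Rule for the calls: active = EC50 no more than a set limit of log units above the highest dose; inactive = the rest.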
Outcome codes: active, inactive

[[record]]
compound = "CCC/C=C(\\CCC)C(NS(=O)(=O)c1ccc(C(F)(F)F)cc1)c1ccccc1 (configuration not stated)"
assigned_category = "active"

[[record]]
compound = "COc1ccc(C(=O)CSc2nnc(CNC(=O)c3ccc(S(=O)(=O)N(C)C)cc3)o2)cc1"
assigned_category = "inactive"

[[record]]
compound = "NC(=S)N=Nc1ccc(NN=C(N)N)cc1"
assigned_category = "active"

[[record]]
compound = "Cc1ccc(-c2nc3cc(NS(=O)(=O)c4ccc(C)cc4)ccc3o2)cc1"
assigned_category = "active"

[[record]]
compound = "O=C(Nc1nnc(C2=COCCO2)o1)c1ccc(Br)cc1"
assigned_category = "active"

[[record]]
compound = "COc1ccccc1/C=C/c1ccc2cccc(O)c2n1"
assigned_category = "active"

[[record]]
compound = "COc1ccc(C2CC(c3cccs3)=NN2C(=O)c2ccc(Br)o2)cc1 (configuration not stated)"
assigned_category = "active"

[[record]]
compound = "Cc1cccc(/C=C2/S/C(=N/N=C3\\CC4CCC3(C)C4(C)C)NC2=O)c1 (configuration not stated)"
assigned_category = "active"

[[record]]
compound = "Clc1ccc(COn2c(-c3ccc(Cl)cc3)nc3ccccc32)cc1"
assigned_category = "active"

[[record]]
compound = "CCc1nnc(NC(=O)c2cccc(C(=O)Nc3nnc(CC)s3)n2)s1"
assigned_category = "active"

[[record]]
compound = "CCCn1c(=O)c(C(=O)N/N=C/c2ccc(F)cc2)c(O)c2ccccc21"
assigned_category = "active"

[[record]]
compound = "CC(C)(C)OC(=O)[C@H](Cc1ccccc1)NC(=O)c1[nH]cnc1C(=O)Nc1cccc(Cl)c1"
assigned_category = "active"

[[record]]
compound = "O=C(Oc1ccc(Cl)c2cccnc12)c1ccco1"
assigned_category = "active"

[[record]]
compound = "Cc1nn(C)c(C(=O)Nc2ccc(S(=O)(=O)NC34CC5CC(CC(C5)C3)C4)cc2)c1Br"
assigned_category = "active"

[[record]]
compound = "COc1ccccc1CN1CN(S(=O)(=O)c2ccccc2)c2nc3ccccc3nc21"
assigned_category = "active"

[[record]]
compound = "CCN(CC)c1ccc(/C=N/NC(=O)CCC(=O)NCc2ccccc2)c(O)c1"
assigned_category = "active"

[[record]]
compound = "CC(OC(=O)Cc1n[nH]c(=O)c2ccccc12)C(=O)Nc1ccc(Cl)cn1 (configuration not stated)"
assigned_category = "active"

[[record]]
compound = "C/C(=N\\Nc1nc(N2CCCCCC2)nc(N2CCCCCC2)n1)c1ccccc1"
assigned_category = "active"

[[record]]
compound = "O=c1c(O)c(-c2cccs2)oc2ccccc12"
assigned_category = "active"

[[record]]
compound = "C=CCn1c(O)c(C(CC)=Nc2ccc(N(C)C)cc2)c(=O)[nH]c1=O"
assigned_category = "active"

[[record]]
compound = "CCCCCc1ccc(OCCCC[n+]2ccccc2)c(CCCCC)c1"
assigned_category = "active"

[[record]]
compound = "Cc1cccc(OCC(=O)Nc2ccncc2)c1"
assigned_category = "inactive"


====

measurement target: S. pyogenes SKKanGAS, kanamycin survival, BacTiterGlo, 6 h
assay remarks: S. pyogenes SKKanGAS kanamycin growth inhibitors – SKKanGAS strain, luminescence, dose confirmation, streptokinase promoter inhibitor project, dose response (AID 1902);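 also: lower survival reflects blocked streptokinase promoter driving kanamycin resistance gene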
pEC50: −log10 of the molar value.
Below is a list of entries, each paired with its recorded pEC50 value.
readout name: pEC50

[[record]]
molecule = "COc1cc(C(=O)N/N=C/c2ccc(OC(=O)c3ccccc3Cl)c(OC)c2)ccc1O"
endpoint_result = 5.25

[[record]]
molecule = "O=C(O)CCn1cc(/C=C/C(=O)c2ccc(Cl)cc2)c(-c2cccc(Br)c2)n1"
endpoint_result = 5.43

[[record]]
molecule = "COc1cccc(C(=O)Oc2ccc(/C=N/Nc3ccc(C(=O)O)cc3)cc2OC)c1"
endpoint_result = 5.21

[[record]]
molecule = "Cc1nnc(SC(C(=O)Nc2cc(Cl)cc(Cl)c2)c2ccccc2)[nH]c1=O (stereo not given)"
endpoint_result = 4.97

[[record]]
molecule = "CCc1oc2ccccc2c1C(=O)c1cc(Br)c(O)c(Br)c1"
endpoint_result = 5.18


====

measurement target: S. pyogenes SKKanGAS, kanamycin survival, BacTiterGlo, 6 h
assay remarks: S. pyogenes SKKanGAS kanamycin growth inhibitors – SKKanGAS strain, luminescence, dose confirmation, streptokinase promoter inhibitor project, dose response (AID 1902);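 also: lower survival reflects blocked streptokinase promoter driving kanamycin resistance gene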
pEC50: −log10 of the molar value.
readout name: pEC50

[[record]]
compound = "COc1ccc([C@H]2Oc3cc(O)cc(O)c3C(=O)C2[C@@H]2C(=O)c3c(O)cc(O)cc3O[C@@H]2c2ccc(OC)cc2)cc1 (stereo not given in full)"
endpoint_result = 5.79

[[record]]
compound = "CC1=NN(c2ccc([N+](=O)[O-])cc2)C(=O)/C1=C\\N(C)C"
endpoint_result = 5.10

[[record]]
compound = "Cc1ccc(C(=O)NNC2=Nc3cccc4cccc2c34)cc1"
endpoint_result = 5.50

[[record]]
compound = "Clc1ccc(/C=N/NC(=Nc2ccccc2)c2ccccn2)c(Cl)c1"
endpoint_result = 4.87

[[record]]
compound = "CCCSc1nsc(NC(=O)C(c2ccccc2)c2ccccc2)n1"
endpoint_result = 5.52

[[record]]
compound = "Cc1ccc(Cn2ccc(=O)c(OCc3c(Cl)cccc3Cl)c2C)cc1"
endpoint_result = 5.23

[[record]]
compound = "CN1CCN(C2=Cc3ccc(Cl)cc3Sc3ccc(F)cc32)CC1"
endpoint_result = 5.34

[[record]]
compound = "CCn1c(=O)c(C(=O)Nc2nc3ccccc3[nH]2)c(O)c2ccccc21"
endpoint_result = 5.99

[[record]]
compound = "CCCCCc1ccc(OCCOCCn2c[n+](C)c3ccccc32)c(CCCCC)c1"
endpoint_result = 5.24

[[record]]
compound = "Oc1ccc(-c2c(C3=CCCCC3)sc3ccccc23)cc1"
endpoint_result = 5.30


====

measurement target: S. pyogenes SKKanGAS, kanamycin survival, BacTiterGlo, 6 h
assay remarks: S. pyogenes SKKanGAS kanamycin growth inhibitors – SKKanGAS strain, luminescence, dose confirmation, streptokinase promoter inhibitor project, dose response (AID 1902);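 also: lower survival reflects blocked streptokinase promoter driving kanamycin resistance gene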
readout name: EC50

[[record]]
molecule = "CCOC(=O)c1cnc(-n2nc(C)cc2C)nc1NC1CCCCC1"
readout_name = "EC50"
endpoint_result = "< 0.06 µM"

[[record]]
molecule = "Cc1cc(/C=C2/C(=N)N3C(=NC2=O)SN=C3S(C)(=O)=O)c(C)n1-c1ccc(F)cc1"
readout_name = "EC50"
endpoint_result = "4.98 µM"

[[record]]
molecule = "CC1CC(NC(=O)c2c(O)nc3sccn3c2=O)CC(C)(C)C1 (stereo not given)"
readout_name = "EC50"
endpoint_result = "7.03 µM"

[[record]]
molecule = "Cn1c(O)c(N=NC(=S)Nc2ccccc2F)c2cc(S(=O)(=O)N3CCOCC3)ccc21"
readout_name = "EC50"
endpoint_result = "5.09 µM"

[[record]]
molecule = "Cc1nn(-c2ccccc2)c(C)c1/C=N/n1c(-c2ccc(C(C)(C)C)cc2)n[nH]c1=S"
readout_name = "EC50"
endpoint_result = "2.62 µM"

